growth values by entry
# System: OVCAR-5 ovarian
# ASSAY DETAILS: NCI-60 one-dose screen, 48 h (100 = growth as untreated, 0 = no growth, -100 = all killed)
# DETAILS: 10 µM
This is part of a sample that, as a whole, favours compounds with a hit. Of some 83,000 tested, about 20% had one in any assay. Calls of active or inactive are those of the source. How the source made its calls: active means growth percent below 10; inactive means the rest.
READOUT LABEL: growth

>  <COMPOUND>
O=C(O)C(c1ccccc1)C(O)c1ccccc1 (stereo not given)

>  <TARGET OR SYSTEM>
OVCAR-5 ovarian

>  <RECORDED VALUE>
103% (inactive)

$$$$
>  <COMPOUND>
CC(=O)OC(OC(C)=O)C1CCCO1 (stereo not given)

>  <TARGET OR SYSTEM>
OVCAR-5 ovarian

>  <RECORDED VALUE>
100% (inactive)

$$$$
>  <COMPOUND>
CC(=O)OC(C(=O)O)c1ccccc1 (stereo not given)

>  <TARGET OR SYSTEM>
OVCAR-5 ovarian

>  <RECORDED VALUE>
105% (inactive)

$$$$
>  <COMPOUND>
CC1(O)OC(COc2ccc(Cl)cc2)COC1O (stereo not given)

>  <TARGET OR SYSTEM>
OVCAR-5 ovarian

>  <RECORDED VALUE>
111% (inactive)

$$$$
>  <COMPOUND>
O=C(O)CCC(NC(=O)OCc1ccccc1)C(=O)O (stereo not given)

>  <TARGET OR SYSTEM>
OVCAR-5 ovarian

>  <RECORDED VALUE>
105% (inactive)

$$$$
